Assay: Pharmacokinetics and plasma concentration of Example 101 in Lewis rats after oral administration (CIA study)
Assay type: in vivo, Lewis rat
Conditions: Lewis, rat, plasma, oral, 10 mg/kg, oral, day 0, 10 mg/kg, 14 h, per test subject; read-out: Plasma concentration
reported-endpoint: concentration at 14 h (ng/mL)

molecule="CNC(=O)c1[nH]c(C(=O)NC2CCC2)cc1O[C@@H](C)c1ccccc1 (stereo in doubt)" measure_unit=ng/mL readout_number=324

---

Experiment: Pharmacokinetics and plasma concentration of Example 101 in Lewis rats after oral administration (CIA study)
Assay type: in vivo, Lewis rat
Conditions: Lewis, rat, plasma, oral, 10 mg/kg, oral, day 20, 10 mg/kg, 2 h, per test subject; read-out: Plasma concentration
reported-endpoint: concentration at 2 h (ng/mL)

compound="CNC(=O)c1[nH]c(C(=O)NC2CCC2)cc1O[C@@H](C)c1ccccc1 (stereo in doubt)" measure_unit=ng/mL readout_number=841
